- Test system: MCF7
- run description: Cytotoxicity against Homo sapiens (human) MCF7 assessed as cell growth at 10^-4 M after 48 hr by Alamar Blue assay
- Format: functional
- condition summary: MCF7, 48 h, read-out: Activity
Readings of growth at 100 µM for the listed compounds
The figure you give is taken to be in %; do not add the unit.

Consider the reported growth at 100 µM for these compounds:
mol smiles: Cc1ccc(C2=NOC3=c4ccccc4=CSC3=C2c2ccccc2)cc1
metric: growth at 100 µM
unit of measurement: %
assay value: 51
--
mol smiles: Cc1ccc(C2=C3SC=c4ccccc4=C3ON=C2c2ccc(Cl)cc2)cc1
metric: growth at 100 µM
unit of measurement: %
assay value: 2
--
mol smiles: Cc1ccc(C2=NOC3=c4ccccc4=CSC3=C2c2ccc(C)cc2)cc1
metric: growth at 100 µM
unit of measurement: %
assay value: 36
--
mol smiles: COc1ccc(C2=C3SC=c4ccccc4=C3ON=C2c2ccc(Cl)cc2)cc1
metric: growth at 100 µM
unit of measurement: %
assay value: 51
--
mol smiles: O=[N+]([O-])c1ccc(C2=C3SC=c4ccccc4=C3ON=C2c2ccc(Cl)cc2)cc1
metric: growth at 100 µM
unit of measurement: %
assay value: 85
--
mol smiles: COc1ccc(C2=NOC3=c4ccccc4=CSC3=C2c2ccc(OC)cc2)cc1
metric: growth at 100 µM
unit of measurement: %
assay value: 116

Now let's try a different one.
Query :: Reported growth at 100 µM, compound `Cc1ccc(C2=C3SC=c4ccccc4=C3ON=C2c2ccc([N+](=O)[O-])cc2)cc1` : ____
Result :: 97

---

growth at 100 µM overview
- System: SF-268
- run description: Cytotoxicity against Homo sapiens (human) SF268 assessed as cell growth at 10^-4 M after 48 hr by Alamar Blue assay
- Assay type: functional
- condition summary: SF-268, 48 h, read-out: Activity
Field: numeric (%). Do not append units.

Guide cases for growth at 100 µM, answers given:
mol smiles: Clc1ccc(C2=NOC3=c4ccccc4=CSC3=C2c2ccccc2)cc1
unit of measurement: %
growth at 100 µM: 95
//
mol smiles: Cc1ccc(C2=NOC3=c4ccccc4=CSC3=C2c2ccc(C)cc2)cc1
unit of measurement: %
growth at 100 µM: 91
//
mol smiles: Cc1ccc(C2=NOC3=c4ccccc4=CSC3=C2c2ccc([N+](=O)[O-])cc2)cc1
unit of measurement: %
growth at 100 µM: 111
//
mol smiles: Cc1ccc(C2=C3SC=c4ccccc4=C3ON=C2c2ccc(Cl)cc2)cc1
unit of measurement: %
growth at 100 µM: 37
//
mol smiles: COc1ccc(C2=NOC3=c4ccccc4=CSC3=C2c2ccc(C)cc2)cc1
unit of measurement: %
growth at 100 µM: 97
//
mol smiles: Cc1ccc(C2=C3SC=c4ccccc4=C3ON=C2c2ccccc2)cc1
unit of measurement: %
growth at 100 µM: 69
//
mol smiles: O=[N+]([O-])c1ccc(C2=C3SC=c4ccccc4=C3ON=C2c2ccc(Cl)cc2)cc1
unit of measurement: %
growth at 100 µM: 104
//
mol smiles: COc1ccc(C2=NOC3=c4ccccc4=CSC3=C2c2ccc(OC)cc2)cc1
unit of measurement: %
growth at 100 µM: 105

Query :: State the recorded growth at 100 µM for this entry: `COc1ccc(C2=C3SC=c4ccccc4=C3ON=C2c2ccc(C)cc2)cc1`
Result :: 103

Query :: What do we get for `COc1ccc(C2=C3SC=c4ccccc4=C3ON=C2c2ccc(Cl)cc2)cc1` ?
Result :: 102

Query :: Likewise for `Cc1ccc(C2=C3SC=c4ccccc4=C3ON=C2c2ccc([N+](=O)[O-])cc2)cc1` ?
Result :: 83

Query :: What do you have for `Cc1ccc(C2=NOC3=c4ccccc4=CSC3=C2c2ccccc2)cc1` ?
Result :: 66

Query :: Next record, please: `C1=c2ccccc2=C2ON=C(c3ccccc3)C(c3ccccc3)=C2S1`
Result :: 97

Query :: // same read-out, input: `COc1ccc(C2=NOC3=c4ccccc4=CSC3=C2c2ccccc2)cc1`
Result :: 106

Query :: And what about the molecule `O=[N+]([O-])c1ccc(C2=NOC3=c4ccccc4=CSC3=C2c2ccccc2)cc1` ?
Result :: 101

---

- Tested on: MCF7
- run description: Cytotoxicity against Homo sapiens (human) MCF7 assessed as cell growth at 10^-4 M after 48 hr by Alamar Blue assay
- Type: functional
- condition summary: MCF7, 48 h, read-out: Activity
metric: growth at 100 µM (%)
State the answer as a number, implicitly in %.

Would you please look over these solved cases?
mol smiles: COc1ccc(C2=NOC3=c4ccccc4=CSC3=C2c2ccc(C)cc2)cc1
assay value: 86
--
mol smiles: Cc1ccc(C2=C3SC=c4ccccc4=C3ON=C2c2ccccc2)cc1
assay value: 41
--
mol smiles: Cc1ccc(C2=NOC3=c4ccccc4=CSC3=C2c2ccc([N+](=O)[O-])cc2)cc1
assay value: 99

Query :: # get_value(readout='growth at 100 µM', item= `Clc1ccc(C2=NOC3=c4ccccc4=CSC3=C2c2ccccc2)cc1` )
Result :: 95

Query :: Next up: `C1=c2ccccc2=C2ON=C(c3ccccc3)C(c3ccccc3)=C2S1`
Result :: 104

---

compounds and their reported growth at 100 µM
- Test system: MCF7
- run description: Cytotoxicity against Homo sapiens (human) MCF7 assessed as cell growth at 10^-4 M after 48 hr by Alamar Blue assay
- Type: functional
- condition summary: MCF7, 48 h, read-out: Activity
Number first, unit second: that is the form wanted.

Some compounds with recorded growth at 100 µM:
mol smiles: COc1ccc(C2=C3SC=c4ccccc4=C3ON=C2c2ccc(C)cc2)cc1
growth at 100 µM: 98%
--
mol smiles: O=[N+]([O-])c1ccc(C2=NOC3=c4ccccc4=CSC3=C2c2ccccc2)cc1
growth at 100 µM: 62%

The record that follows has no growth at 100 µM shown yet.
Query :: Requested read-out growth at 100 µM, target or system MCF7, entry `COc1ccc(C2=NOC3=c4ccccc4=CSC3=C2c2ccccc2)cc1`
Result :: 97%

src = ChEMBL document CHEMBL3046904
